Protocol notes: Sedimentation equilibrium analytical ultracentrifugation (AUC)
Format: physicochemical
Condition summary: 55 μM, PBS, 20 °C; single run
Result type: Oligomeric state (Table S3) (x monomer)
Quick note: give the figure in x monomer, leave out the unit.

Solved cases (2 shown):
>>> reading("Ac-G KIAALKQ KNAALKY EIAALEQ ENAALEQ G-NH2 (Ac-GKIAALKQKNAALKYEIAALEQENAALEQG-NH2) [CC-Di-KE, charge-neutral coiled-coil peptide, partner of CC-Di-EK]")
0.96
>>> reading("Ac-G EIAALEQ KNAALKW KIAALKQ G-NH2 (Ac-GEIAALEQKNAALKWKIAALKQG-NH2) [CC-Di-EN3, 3-heptad coiled-coil peptide]")
0.95

Quickly give me recorded Oligomeric state (Table S3) for Ac-G EIAALEQ EIAALEQ KNAALKW KIAALKQ G-NH2 (Ac-GEIAALEQEIAALEQKNAALKWKIAALKQG-NH2) [CC-Di-EN4, 4-heptad coiled-coil peptide withone asparagine]
1.87

Quickly give me recorded Oligomeric state (Table S3) for Ac-G EIAALEQ ENAALEQ KIAALKW KNAALKQ G-NH2 (Ac-GEIAALEQENAALEQKIAALKWKNAALKQG-NH2) [CC-Di-EK, charge-neutral coiled-coil peptide, four heptads, asparagines at two a sites]
1.00

Quickly give me recorded Oligomeric state (Table S3) for Ac-G LEQ EIAALEQ KNAALKW KIAALKQ G-NH2 [CC-Di-EN3.5, 3.5-heptad coiled-coil peptide]
1.04
